Target: Sodium/hydrogen exchanger 3 (Homo sapiens, UniProt P48764)
Sequence (P48764 whole entry): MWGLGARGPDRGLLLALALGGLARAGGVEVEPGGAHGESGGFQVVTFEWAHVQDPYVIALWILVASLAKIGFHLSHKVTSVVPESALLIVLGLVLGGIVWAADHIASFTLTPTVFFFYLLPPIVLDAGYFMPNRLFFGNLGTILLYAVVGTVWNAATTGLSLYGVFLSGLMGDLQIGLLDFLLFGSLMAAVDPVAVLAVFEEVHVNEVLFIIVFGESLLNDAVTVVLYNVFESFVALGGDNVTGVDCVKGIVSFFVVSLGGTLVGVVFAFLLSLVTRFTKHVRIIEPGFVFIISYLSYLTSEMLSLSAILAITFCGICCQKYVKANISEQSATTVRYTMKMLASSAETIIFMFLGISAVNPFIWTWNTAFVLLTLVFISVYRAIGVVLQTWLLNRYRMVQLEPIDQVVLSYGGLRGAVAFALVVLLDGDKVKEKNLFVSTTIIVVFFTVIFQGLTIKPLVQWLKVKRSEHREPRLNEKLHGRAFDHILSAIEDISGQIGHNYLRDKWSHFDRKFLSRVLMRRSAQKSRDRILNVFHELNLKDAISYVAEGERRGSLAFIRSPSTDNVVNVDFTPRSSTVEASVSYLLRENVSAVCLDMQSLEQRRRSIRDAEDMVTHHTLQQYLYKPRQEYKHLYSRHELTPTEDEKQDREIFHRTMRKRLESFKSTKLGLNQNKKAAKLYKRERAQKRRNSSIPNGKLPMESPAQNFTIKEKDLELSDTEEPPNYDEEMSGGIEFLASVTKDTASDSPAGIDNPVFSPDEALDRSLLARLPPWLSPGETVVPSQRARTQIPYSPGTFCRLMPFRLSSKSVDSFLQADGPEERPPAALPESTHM
Assay: Cell-Based Assay of NHE-3 Activity (Pre-Incubation Inhibition): Rat and human NHE-3-mediated Na+-dependent H+ antiport was measured using a modification of the pH sensitive dye method originally reported by Paradiso (Proc. Natl. Acad. Sci. USA. (1984) 81(23): 7436-7440). PS120 fibroblasts stably expressing human NHE3 and NHERF2 were obtained from Mark Donowitz (Baltimore, Md.). Opossum kidney (OK) cells were obtained from the ATCC and propagated per their instructions. The rat NHE-3 gene (GenBank M85300) was introduced into OK cells via electroporation, and cells were seeded into 96 well plates and grown overnight. Medium was aspirated from the wells then incubated for 30 min at 37° C. with NH4Cl-HEPES buffer (20 mM NH4Cl, 80 mM NaCl, 50 mM HEPES, 5 mM KCl, 2 mM CaCl2, 1 mM MgCl2, pH 7.4) containing 5 μM BCECF-AM. Cells were washed once with Ammonium free, Na+-free HEPES (100 mM choline, 50 mM HEPES, 10 mM glucose, 5 mM KCl, 2 mM CaCl2, 1 mM MgCl2, pH 7.4) and incubated in the same buffer for 10 minutes at room temperature to lower intracellular pH with 0-30 μM test compound. […] Changes in intracellular pH were monitored using a FLIPR Tetra® (Molecular Devices, Sunnyvale, Calif.) by excitation at λex 439 to 505 nm, and measuring BCECF fluorescence at λem 538 nm. The initial rate of the fluorescence ratio change was used as a measure of NHE-mediated Na+/H+ activity, and reported as the change in fluorescence ratio per minute.
pIC50: −log10 of the molar value.
endpoint: pIC50

In the examples that follow, each entry is paired with its recorded pIC50.
# mol_smiles, target_or_test_system, pIC50
records = [
    ("Cc1cc(S(=O)(=O)N[C@@H]2CCN(CCOCCNC(=O)NCCCCNC(=O)NCCOCCN3CC[C@@H](NS(=O)(=O)c4ccc(O[C@H]5c6cc(Cl)cc(C#N)c6C[C@@H]5N(C)C)c(C)c4)C3)C2)ccc1O[C@H]1c2cc(Cl)cc(C#N)c2C[C@@H]1N(C)C", "Sodium/hydrogen exchanger 3 (Homo sapiens, UniProt P48764)", "> 7.00"),
    ("O=C(NCCCCNC(=O)NCCOCCN1CC[C@H](NS(=O)(=O)c2ccc(O[C@H]3c4cc(Cl)cc(Cl)c4C[C@@H]3N3CCNCC3)c(F)c2)C1)NCCOCCN1CC[C@H](NS(=O)(=O)c2ccc(O[C@H]3c4cc(Cl)cc(Cl)c4C[C@@H]3N3CCNCC3)c(F)c2)C1", "Sodium/hydrogen exchanger 3 (Homo sapiens, UniProt P48764)", "> 7.00"),
    ("Cc1cc(O[C@H]2c3cc(Cl)cc(Cl)c3C[C@@H]2N2CCC[C@@H](N)C2)c(F)cc1S(=O)(=O)NCCOCCOCCNC(=O)NCCCCNC(=O)NCCOCCOCCNS(=O)(=O)c1cc(F)c(O[C@H]2c3cc(Cl)cc(Cl)c3C[C@@H]2N2CCC[C@@H](N)C2)cc1C", "Sodium/hydrogen exchanger 3 (Homo sapiens, UniProt P48764)", "> 7.00"),
    ("CN(C)[C@H]1Cc2c(cc(Cl)cc2C(F)(F)F)[C@@H]1Oc1ccc(S(=O)(=O)NCCOCCOCCNC(=O)NCCCCNC(=O)NCCOCCOCCNS(=O)(=O)c2ccc(O[C@H]3c4cc(Cl)cc(C(F)(F)F)c4C[C@@H]3N(C)C)cc2)cc1", "Sodium/hydrogen exchanger 3 (Homo sapiens, UniProt P48764)", "< 6.00"),
    ("CN(C)[C@H]1Cc2c(OC(F)(F)F)cc(Cl)cc2[C@@H]1Oc1ccc(S(=O)(=O)NCCOCCOCCNC(=O)NCCCCNC(=O)NCCOCCOCCNS(=O)(=O)c2ccc(O[C@H]3c4cc(Cl)cc(OC(F)(F)F)c4C[C@@H]3N(C)C)cc2)cc1", "Sodium/hydrogen exchanger 3 (Homo sapiens, UniProt P48764)", "< 6.00"),
]

Turning to the following compound.
Reported pIC50, compound CN(C)[C@@H]1CCCN([C@H]2Cc3c(C#N)cc(Cl)cc3[C@@H]2Oc2ccc(S(=O)(=O)NCCOCCOCCNC(=O)NCCCCNC(=O)NCCOCCOCCNS(=O)(=O)c3ccc(O[C@H]4c5cc(Cl)cc(C#N)c5C[C@@H]4N4CCC[C@@H](N(C)C)C4)c(F)c3)cc2F)C1 : ____
< 6.00
